study-target: H3 hemagglutinin of H3N2 strain X-31 (influenza A virus X-31 (H3N2)) (UniProt P03437)
test-description: cell-based or functional assay
measured-metric: MIC (µg/mL)
// units = µg/mL; emit number, no label

Exercise: Let me know recorded MIC for Ab 037 (antibody, V domains shown) VH: EVQLLESGGGLVKPGQSLKLSCAASGFTFTSYAMHWVRQPPGKGLEWVAVVSYDGNYKYYADSVQGRFTISRDNSKNTLYLQMNSLRAEDTAVYYCAKDSRLRSLLYFEWLSQGYFNPWGQGTTLTVSS VL: DIQMTQSPSSLSASVGDRVTITCRSSQSITFNYKNYLGWYQQKPGKAPKLLIYWGSYLESGVPSRFSGSGSGTDFTLTISSLQPEDFATYYCQQHYRTPPSFGQGTKVEIK , thanks.
Key: 8
